// data source = paper PMC3402541

Tested on: MRSE CAN-ICU 61589
Format: cell-based, methicillin-resistant S. epidermidis
Conditions: CAN-ICU 61589, 24 h
Where a SMILES comes first, the peptide text is derived from it. [ ]: non-standard residue; d: D form. The star is where a group is joined. Arachidoyl = CCCCCCCCCCCCCCCCCCCC(=O)*; Palmitoyl = CCCCCCCCCCCCCCCC(=O)*; Myristoyl = CCCCCCCCCCCCCC(=O)*; Nlys = NCCCCNCC(=O)O
PROPERTY: MIC MRSE (µg/mL)

Past entries and their recorded results:
>  <MOLECULE>
CCCCCCCCCCC(=O)N(CCCCN)CC(=O)N(CCCCN)CC(=O)N(CCCCN)CC(N)=O

>  <MEASUREMENT_UNIT>
µg/mL

>  <MIC MRSE>
512

$$$$
>  <MOLECULE>
CCCCCCCCCCCCCCCC(=O)N(CCCCN)CC(=O)N(CCCCN)CC(=O)N(CCCCN)CC(N)=O

>  <MEASUREMENT_UNIT>
µg/mL

>  <MIC MRSE>
8

$$$$
>  <MOLECULE>
CCCCCCCCCCCCCC(=O)N(CCCCN)CC(=O)N(CCCCN)CC(=O)N(CCCCN)CC(N)=O

>  <MEASUREMENT_UNIT>
µg/mL

>  <MIC MRSE>
16

$$$$

I. CCCCCCCCCCC(=O)N(CCCCNC(=N)N)CC(=O)NCC(=O)N(CCCCNC(=N)N)CC(N)=O
II. CCCCCCCCCCCCCCCCCCCC(=O)N(CCCCN)CC(=O)NCC(=O)N(CCCCN)CC(N)=O [C20-NlysGNlys] (Arachidoyl-[Nlys]-Gly-[Nlys]-NH2)
Identify the entry with the larger MIC MRSE. Options: I and II Response format: the label of the selected entry.
I
(I: 128 µg/mL, II: 8 µg/mL)

I. CCCCCCCCCCCCCC(=O)N(CCCCNC(=N)N)CC(=O)NCC(=O)N(CCCCNC(=N)N)CC(N)=O
II. CCCCCCCCCCCCCCCCCCCC(=O)N(CCCCNC(=N)N)CC(=O)NCC(=O)N(CCCCNC(=N)N)CC(N)=O
III. CCCCCCCCCCC(=O)N(CCCCNC(=N)N)CC(=O)N(CCCCNC(=N)N)CC(=O)N(CCCCNC(=N)N)CC(N)=O
IV. CCCCCCCCCCCCCC(=O)N(CCCCN)CC(=O)NCC(=O)N(CCCCN)CC(N)=O [C14-NlysGNlys] (Myristoyl-[Nlys]-Gly-[Nlys]-NH2)
Order the 4 molecules from highest to lowest MIC MRSE. Output spec: labels arranged per the requested ranking.
III, IV, I, II
(III: 256 µg/mL, IV: 32 µg/mL, I: 16 µg/mL, II: 8 µg/mL)

A. CCCCCCCCCCCCCCCC(=O)N(CCCCNC(=N)N)CC(=O)NCC(=O)N(CCCCNC(=N)N)CC(N)=O
B. CCCCCCCCCCCCCCCCCCCC(=O)N(CCCCN)CC(=O)N(CCCCN)CC(=O)N(CCCCN)CC(N)=O
Identify the entry with the larger MIC MRSE. Options: A and B Response format: the label of the selected entry.
A
(A: 16 µg/mL, B: 8 µg/mL)

a. CCCCCCCCCCCCCCCC(=O)N(CCCCN)CC(=O)NCC(=O)N(CCCCN)CC(N)=O [C16-NlysGNlys] (Palmitoyl-[Nlys]-Gly-[Nlys]-NH2)
b. CCCCCCCCCCCCCCCC(=O)N(CCCCNC(=N)N)CC(=O)N(CCCCNC(=N)N)CC(=O)N(CCCCNC(=N)N)CC(N)=O
Hi! Which is lower in terms of MIC MRSE, the first one a or the second one b ? Response format: the label of the selected entry.
b
